Listing: yeast fitness of selected variants
B1: tRNA (parent)
chain: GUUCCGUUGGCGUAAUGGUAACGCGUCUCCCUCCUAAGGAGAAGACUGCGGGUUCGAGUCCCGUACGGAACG

Variants of: B1
assay-procedure: yeast fitness relative to wild type (ratio to wild type); higher = fitter; tRNA-Arg(CCU), competitive growth, 37 C, YPD
Variants at the floor of the assay were thinned out.
Answer with a bare number; do not write a unit.

Sample answers from the record:
A20G G25A : 0.904
C5G A20U A65G : 0.65
U8A G18C C24A U32C : 0.607
U8G U26A C31U : 0.52
U7C C33U : 0.713
G12C G67A : 0.771
U8A A21G A36G : 0.65
U28C G50U : 0.602
A14C A65G A69U : 0.634
C49U U64A A69U : 0.558

Attention now turns to another entry.
Q: Any idea what yeast fitness was measured for U7A G9C G17C ?
Ans: 0.55
